# key: entry, value: Ratio
system: Mycobacterium tuberculosis; assay: Ratio of rifampicin MIC to drug MIC for Mycobacterium tuberculosis H37Rv ATCC 27294; assay type: functional
Recorded metric: Ratio

| Compound | Experimental target | Recorded metric | Observed measurement |
| --- | --- | --- | --- |
| CCOC(=O)Cc1csc(N/N=C2\CC(c3ccccc3)N(C)C(c3ccccc3)C2C)n1 (stereo unspecified) | Mycobacterium tuberculosis | Ratio | 200 |
| CCOC(=O)Cc1csc(N/N=C2\CC(c3ccc(OC)cc3)NC(c3ccc(OC)cc3)C2C)n1 (stereo unspecified) | Mycobacterium tuberculosis | Ratio | 200 |
| CCOC(=O)Cc1csc(N/N=C2\CC(c3ccccc3)NC(c3ccccc3)C2C)n1 (stereo unspecified) | Mycobacterium tuberculosis | Ratio | 50 |
| CC1/C(=N/N=C2\NC(=O)CS2)CC(c2ccc(Br)cc2)NC1c1ccc(Br)cc1 (stereo unspecified) | Mycobacterium tuberculosis | Ratio | 200 |
| COc1ccc(C2C/C(=N\N=C3/NC(=O)CS3)C(C)C(c3ccc(OC)cc3)N2)cc1 (stereo unspecified) | Mycobacterium tuberculosis | Ratio | 100 |
| CC1/C(=N/N=C2\NC(=O)CS2)CC(c2ccc(F)cc2)NC1c1ccc(F)cc1 (stereo unspecified) | Mycobacterium tuberculosis | Ratio | 25 |
| Cc1ccc(C2C/C(=N\N=C3/NC(=O)CS3)C(C)C(c3ccc(C)cc3)N2)cc1 (stereo unspecified) | Mycobacterium tuberculosis | Ratio | 50 |
| CCOC(=O)Cc1csc(N/N=C2\CC(c3ccc(F)cc3)NC(c3ccc(F)cc3)C2C)n1 (stereo unspecified) | Mycobacterium tuberculosis | Ratio | 200 |
| CC1/C(=N/N=C2\NC(=O)CS2)CC(c2ccccc2)NC1c1ccccc1 (stereo unspecified) | Mycobacterium tuberculosis | Ratio | 50 |
| CC1/C(=N/N=C2\NC(=O)CS2)CC(c2ccc(Cl)cc2)NC1c1ccc(Cl)cc1 (stereo unspecified) | Mycobacterium tuberculosis | Ratio | 200 |
| CC1/C(=N/N=C2\NC(=O)CS2)CC(c2ccccc2)N(C)C1c1ccccc1 (stereo unspecified) | Mycobacterium tuberculosis | Ratio | 200 |

----------
tested on: Escherichia coli; assay: Antibacterial activity against Escherichia coli by broth microdilution method; assay type: functional
Recorded metric: MIC (µg/mL)

| Compound | Recorded metric | Observed measurement |
| --- | --- | --- |
| CCOC(=O)Cc1csc(N/N=C2\CC(c3ccccc3)N(C)C(c3ccccc3)C2C)n1 (configuration not stated) | MIC | 128 |
| CC1/C(=N/N=C2\NC(=O)CS2)CC(c2ccccc2)NC1c1ccccc1 (configuration not stated) | MIC | 256 |
| CCOC(=O)Cc1csc(N/N=C2\CC(c3ccc(C)cc3)NC(c3ccc(C)cc3)C2C)n1 (configuration not stated) | MIC | 128 |
| CC1/C(=N/N=C2\NC(=O)CS2)CC(c2ccccc2)N(C)C1c1ccccc1 (configuration not stated) | MIC | 128 |
| CC1/C(=N/N=C2\NC(=O)CS2)CC(c2ccc(Cl)cc2)NC1c1ccc(Cl)cc1 (configuration not stated) | MIC | 128 |
| CCOC(=O)Cc1csc(N/N=C2\CC(c3ccc(F)cc3)NC(c3ccc(F)cc3)C2C)n1 (configuration not stated) | MIC | 32 |
| CCOC(=O)Cc1csc(N/N=C2\CC(c3ccc(Cl)cc3)NC(c3ccc(Cl)cc3)C2C)n1 (configuration not stated) | MIC | 64 |

----------
Test system Rhizopus sp, MIC listed for each of the compounds.
Recorded metric: MIC (µg/mL)

| Compound | Endpoint unit | Operator symbol | Observed measurement |
| --- | --- | --- | --- |
| CCOC(=O)Cc1csc(N/N=C2\CC(c3ccc(Br)cc3)NC(c3ccc(Br)cc3)C2C)n1 (configuration not stated) | µg/mL | = | 256 |
| CC1/C(=N/N=C2\NC(=O)CS2)CC(c2ccc(Br)cc2)NC1c1ccc(Br)cc1 (configuration not stated) | µg/mL | = | 16 |
| C[C@@H]1[C@H](O)[C@@H](C)/C=C/C=C/C=C/C=C/C=C/C=C/C=C/[C@H](O[C@@H]2O[C@H](C)[C@@H](O)[C@H](N)[C@@H]2O)C[C@@H]2O[C@](O)(C[C@@H](O)C[C@@H](O)[C@H](O)CC[C@@H](O)C[C@@H](O)CC(=O)O[C@H]1C)C[C@H](O)[C@H]2C(=O)O | µg/mL | = | 16 |
| CCOC(=O)Cc1csc(N/N=C2\CC(c3ccccc3)NC(c3ccccc3)C2C)n1 (configuration not stated) | µg/mL | > | 256 |
| CCOC(=O)Cc1csc(N/N=C2\CC(c3ccccc3)N(C)C(c3ccccc3)C2C)n1 (configuration not stated) | µg/mL | = | 8 |
| CC1/C(=N/N=C2\NC(=O)CS2)CC(c2ccccc2)NC1c1ccccc1 (configuration not stated) | µg/mL | > | 256 |
| CCOC(=O)Cc1csc(N/N=C2\CC(c3ccc(F)cc3)NC(c3ccc(F)cc3)C2C)n1 (configuration not stated) | µg/mL | = | 16 |

----------
system: Klebsiella pneumoniae; assay: Antibacterial activity against Klebsiella pneumoniae by broth microdilution method; assay type: functional
Recorded metric: MIC (µg/mL)

| Molecule | Recorded metric | Observed measurement |
| --- | --- | --- |
| O=C(O)c1cn(C2CC2)c2cc(N3CCNCC3)c(F)cc2c1=O [CIPROFLOXACIN] | MIC | 16 |
| CCOC(=O)Cc1csc(N/N=C2\CC(c3ccc(OC)cc3)NC(c3ccc(OC)cc3)C2C)n1 (stereo not drawn) | MIC | 256 |
| CC1/C(=N/N=C2\NC(=O)CS2)CC(c2ccc(Br)cc2)NC1c1ccc(Br)cc1 (stereo not drawn) | MIC | 8 |
| COc1ccc(C2C/C(=N\N=C3/NC(=O)CS3)C(C)C(c3ccc(OC)cc3)N2)cc1 (stereo not drawn) | MIC | 64 |
| CC1/C(=N/N=C2\NC(=O)CS2)CC(c2ccc(F)cc2)NC1c1ccc(F)cc1 (stereo not drawn) | MIC | 4 |
| CCOC(=O)Cc1csc(N/N=C2\CC(c3ccc(F)cc3)NC(c3ccc(F)cc3)C2C)n1 (stereo not drawn) | MIC | 64 |
| CC1/C(=N/N=C2\NC(=O)CS2)CC(c2ccccc2)N(C)C1c1ccccc1 (stereo not drawn) | MIC | 64 |
| CCOC(=O)Cc1csc(N/N=C2\CC(c3ccc(Cl)cc3)NC(c3ccc(Cl)cc3)C2C)n1 (stereo not drawn) | MIC | 128 |

----------
Reported values: MIC for Rhizopus sp, one per item.

| Molecule | MIC |
| --- | --- |
| CCOC(=O)Cc1csc(N/N=C2\CC(c3ccccc3)NC(c3ccccc3)C2CC)n1 (stereo not given) | 256 µg/mL |
| CCOC(=O)Cc1csc(N/N=C2\CC(c3ccc(Cl)cc3)NC(c3ccc(Cl)cc3)C2C)n1 (stereo not given) | 128 µg/mL |
| CC1/C(=N/N=C2\NC(=O)CS2)CC(c2ccccc2)N(C)C1c1ccccc1 (stereo not given) | 8 µg/mL |
| CCOC(=O)Cc1csc(N/N=C2\CC(c3ccc(C)cc3)NC(c3ccc(C)cc3)C2C)n1 (stereo not given) | 128 µg/mL |
| CC1/C(=N/N=C2\NC(=O)CS2)CC(c2ccc(F)cc2)NC1c1ccc(F)cc1 (stereo not given) | 16 µg/mL |

----------
tested on: Rhizopus sp

| Compound | Operator symbol | MIC, µg/mL |
| --- | --- | --- |
| CC1/C(=N/N=C2\NC(=O)CS2)CC(c2ccc(Cl)cc2)NC1c1ccc(Cl)cc1 (stereo not given) | = | 256 |
| Cc1ccc(C2C/C(=N\N=C3/NC(=O)CS3)C(C)C(c3ccc(C)cc3)N2)cc1 (stereo not given) | = | 256 |
| COc1ccc(C2C/C(=N\N=C3/NC(=O)CS3)C(C)C(c3ccc(OC)cc3)N2)cc1 (stereo not given) | = | 128 |
| CCC1/C(=N/N=C2\NC(=O)CS2)CC(c2ccccc2)NC1c1ccccc1 (stereo not given) | > | 256 |
| CCOC(=O)Cc1csc(N/N=C2\CC(c3ccc(OC)cc3)NC(c3ccc(OC)cc3)C2C)n1 (stereo not given) | = | 256 |

----------
system: Escherichia coli; assay: Antibacterial activity against Escherichia coli by broth microdilution method; format: functional
Recorded MIC by entry

| Molecule | Operator symbol | MIC (µg/mL) |
| --- | --- | --- |
| CCOC(=O)Cc1csc(N/N=C2\CC(c3ccc(Br)cc3)NC(c3ccc(Br)cc3)C2C)n1 (centres undefined) | = | 4 |
| CCOC(=O)Cc1csc(N/N=C2\CC(c3ccccc3)NC(c3ccccc3)C2CC)n1 (centres undefined) | > | 256 |
| CCC1/C(=N/N=C2\NC(=O)CS2)CC(c2ccccc2)NC1c1ccccc1 (centres undefined) | > | 256 |
| Cc1ccc(C2C/C(=N\N=C3/NC(=O)CS3)C(C)C(c3ccc(C)cc3)N2)cc1 (centres undefined) | = | 128 |
| CCOC(=O)Cc1csc(N/N=C2\CC(c3ccccc3)NC(c3ccccc3)C2C)n1 (centres undefined) | = | 128 |
| CCOC(=O)Cc1csc(N/N=C2\CC(c3ccc(OC)cc3)NC(c3ccc(OC)cc3)C2C)n1 (centres undefined) | = | 128 |
| COc1ccc(C2C/C(=N\N=C3/NC(=O)CS3)C(C)C(c3ccc(OC)cc3)N2)cc1 (centres undefined) | = | 32 |
| CC1/C(=N/N=C2\NC(=O)CS2)CC(c2ccc(F)cc2)NC1c1ccc(F)cc1 (centres undefined) | = | 32 |
| CC1/C(=N/N=C2\NC(=O)CS2)CC(c2ccc(Br)cc2)NC1c1ccc(Br)cc1 (centres undefined) | = | 16 |
